Data provenance: the SangsterLogP compilation

reported-property: logP

Use the examples below as a reference point.
CN(C)/N=N/c1ccc(C(N)=O)cc1; 1.17
CN(O)N=Nc1ccc(C(N)=O)cc1; -0.22
CCCCCCCCCCCCN(C)N=Nc1ccc(C(N)=O)cc1; 6.58
CCN(C)N=Nc1ccc(C(=O)O)cc1; 0.03

P = CCCCCCN(C)N=Nc1ccc(C(N)=O)cc1
Q = CCCCCCCN(C)N=Nc1ccc(C(=O)O)cc1
*Q* Quick check, higher logP between P and Q ? State your choice using its label.
*A* P

A = CN(CCO)/N=N/c1ccc(C(N)=O)cc1
B = CCCCCCCN(C)/N=N/c1ccc(C(N)=O)cc1
*Q* Between A and B , which one shows the smaller logP number? State your choice using its label.
*A* A
(A: 0.26, B: 4.15)

###

reported-property: logP

Use the examples below as a reference point.
C#CCN(C)N=Nc1ccc(C(=O)O)cc1; -0.13
CN(C)/N=N/c1ccc(C(=O)O)cc1; -0.29

P = CCCCCCCCCCCCN(C)N=Nc1ccc(C(=O)O)cc1
Q = CC(C)N(C)N=Nc1ccc(C(=O)O)cc1
*Q* Quick check, higher logP between P and Q ? State your choice using its label.
*A* P

A = C=CCN(C)N=Nc1ccc(C(=O)O)cc1
B = CCCCCCCCCCCCCCCCCCN(C)N=Nc1ccc(C(=O)O)cc1
*Q* Quick check, higher logP between A and B ? State your choice using its label.
*A* B
(B: 7.6, A: 0.38)
